Where do the numbers come from? From PubChem BioAssay.

test: HUVEC growth inhibition – cell-based, human, primary screen (AID 575); conditions: HUVEC proliferation, CellTiter-Glo luminescence, 72 h; at 10 µM; hits give low values;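 further: 100% = median of untreated cell wells with 0.1% DMSO on each plate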
measurement_label: viability (%)

INSERT INTO results (compound, assay_result) VALUES
  ('CCOC(=O)C1=C(Cn2cnc3ccccc32)NC(=O)NC1c1cc(C)ccc1C (stereo not given)', 93.7),
  ('CC1(C)CC(=O)c2cc(OCC(=O)N3CCN(c4ccccc4F)CC3)ccc2O1', 99.1),
  ('CC(NCCC(c1ccccc1)c1ccccc1)c1ccccc1 (stereo not given)', 2.03),
  ('COc1ccc(CN2C(=O)C(O)(CC(=O)c3c(C)n[nH]c3C)c3ccccc32)cc1OC (stereo not given)', 105),
  ('FC(F)(F)c1cc(-c2ccco2)nc(-n2nnc3ccccc32)n1', 59.5);
